assay: NCI Yeast Anticancer Drug Screen. Data for the sgs1 mgt1 strain (AID 161);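 further: 0% = growth of cultures given vehicle only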; settings: S. cerevisiae sgs1 mgt1 strain, at 5.0 µM (retest, dose inferred, filed as 0.5), stronger effect = higher value
The panel holds about 79,000 compounds, 15% with a hit somewhere; the sample as a whole holds those more often.
# growth inhibition values compiled below
Express the result in % but write the number alone.

Completed entries (count: 4):
CC1=C(O)C(=O)C=C2C1=CC=C1[C@@]2(C)CC[C@@]2(C)[C@@H]3C[C@](C)(C(=O)O)CC[C@]3(C)CC[C@]12C	83
O=C1C=CC(=O)C(Cl)=C1	10
COc1cc([N+](=O)[O-])c2ncccc2c1[N+](=O)[O-]	-2
N#CC(C#N)=Cc1c(O)ccc2ccccc12	2

--- query ---
The compound CC[n+]1c(/C=C/c2ccc(N(CCCl)CCCl)cc2)ccc2cc(Br)ccc21 showed growth inhibition equal to 98

###

test: NCI Yeast Anticancer Drug Screen. Data for the sgs1 mgt1 strain (AID 161);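 further: 0% = growth of cultures given vehicle only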; settings: S. cerevisiae sgs1 mgt1 strain, at 50.0 µM (retest, dose inferred, filed as 5.0), stronger effect = higher value
About 79,000 compounds went through this panel and 15% of them were active in at least one assay; those are over-represented in the sample as a whole.
Tick y if growth inhibition is 70% or greater. Tick n if growth inhibition is less than 70%.

CC(C)CCC1(CCSC(=O)S)C(=O)NC(=O)NC1=O	n
O=[N+]([O-])c1ccc([N+](=O)[O-])c2nsnc12	y
[Cl][Sn]([Cl])([c]1ccccc1)[c]1ccccc1.c1ccc2nc(-c3ccc4ccccc4n3)ccc2c1	y

Now, please, on to the next compound.
Request: Does growth inhibition meet or surpass 70% for O=NNc1c[nH]c(=O)[nH]c1=O ?
Result: n

###

assay: NCI Yeast Anticancer Drug Screen. Data for the bub3 strain (AID 167); conditions: S. cerevisiae bub3 mutant strain, at 50.0 µM, stronger effect = higher value
About 79,000 compounds went through this panel and 15% of them were active in at least one assay; those are over-represented in the sample as a whole.
EXPERIMENTAL READOUT: growth inhibition (%)
Express the result in % but write the number alone.

Completed entries (count: 3):
Nc1nc(N)[nH]c(=O)n1	-36.4
CN(C)CCO	23.4
NC1CC2CCCCC2CC1c1ccccc1 (stereo not given)	-5.85

The molecule O=P(O)(O)c1ccccc1 (tested in a mixture with another compound) showed growth inhibition equal to -31.9

The molecule O=C(Cl)OCCOCCOC(=O)Cl showed growth inhibition equal to -3.15

The molecule COC1CCC(OC2CC(C3(C)CCC4(CC(O)C(C)C(C(C)/C=C(\C)C(=O)C(C)CC(C)C(=O)O)O4)O3)OC3(OC(C4OC(O)(CO)C(C)CC4C)CC3C)C2C)OC1C (stereo not given) showed growth inhibition equal to 58.1

###

test: NCI Yeast Anticancer Drug Screen. Data for the mlh1 rad18 strain (AID 175); settings: S. cerevisiae mlh1 rad18 strain growth inhibition; at 50.0 µM (retest, dose inferred, filed as 5.0)
The panel holds about 79,000 compounds, 15% with a hit somewhere; the sample as a whole holds those more often. Active and inactive are the calls of the source. No stated cut-off is given here; in the data, active means growth inhibition above about 70%; inactive means the rest.
Return exactly one item of active, inactive

// known answers, use as guide
Cc1c2ccncc2c(CN(CCCl)CCCl)c2c3ccccc3n(C)c12	active
COC1CCCC2OC3(OC)C(OC)CCCC3OC12OC (stereo not given)	inactive
Cc1ccc2c(C)c3ccc4ccccc4c3c[n+]2c1	active
C=NCC#N	inactive
[N-]=[N+]=NC1(N=[N+]=[N-])C(=O)NN=C(c2ccccc2)C1=O (stereo not given)	active

Request: Test call for this compound, please: COc1cccc(C2N(Cc3ccc(N(CCCl)CCCl)cc3C)CCCN2Cc2ccc(N(CCCl)CCCl)cc2C)c1O
Result: active

Request: Test call for this compound, please: COC(=O)[CH2][Sn]([CH2]C(=O)OC)([c]1ccccc1)[c]1ccccc1
Result: active

Request: Test call for this compound, please: NC(=O)/C=C/c1ccc([As]=O)cc1 (stereo not given)
Result: inactive

Request: Test call for this compound, please: N#C[S-].[La+3].c1ccc(-c2ccccn2)nc1.c1ccc(-c2ccccn2)nc1.c1ccc(-c2ccccn2)nc1
Result: active

Request: Test call for this compound, please: CCCCCc1cc(OC(=O)CCCN(CC)CC)c2c(c1)OC(C)(C)[C@@H]1CCC(C)=C[C@@H]21
Result: active

###

assay: NCI Yeast Anticancer Drug Screen. Data for the mlh1 rad18 strain (AID 175); conditions: S. cerevisiae mlh1 rad18 strain growth inhibition; at 50.0 µM
Compounds without any hit were thinned out: in the full panel of roughly 79,000, 15% have a hit. Calls of active or inactive are those of the source. Rule as the data show it: active = growth inhibition above about 70%; inactive = the rest.
Return exactly one item of active, inactive

// known answers, use as guide
N.N.N.N.O=C([O-])C(=O)O.O=C([O-])C(=O)[O-].[Co+3]	inactive
CC(=O)c1ccc(-[n+]2c(C)cc(-c3ccccc3)cc2C)cc1	inactive
FC(F)(F)c1ccc(Cl)c(NC2=NCCS2)c1	inactive
CC(=O)c1ccc(N2CCNCC2)cc1	inactive
COC1=N[C@]2(O)C[C@]3(C)[C@@H](O)CC[C@H]3[C@@H]3CCC4=CC(=O)CC[C@]4(C)[C@]32S1	inactive

Request: Test call for this compound, please: O=[N+]([O-])c1cc[n+]([O-])c2ccccc12
Result: active

Request: Test call for this compound, please: CN(C)c1ccc(/C=C/c2cc3scc(-c4ccccc4)[n+]3c3ccccc23)cc1
Result: active

Request: Test call for this compound, please: C[CH2][Sn]([c]1ccccc1)[c]1ccccc1
Result: inactive

Request: Test call for this compound, please: COc1cc(C2c3[nH]c4ccccc4c3[C@@H](Nc3ccc(C#N)cc3)[C@H]3COC(=O)N23)cc(OC)c1O (stereo partly specified)
Result: inactive

Request: Test call for this compound, please: CCCCCCCCCCCCCCCCCC(=O)NC(CC(=O)OCCCCCC)c1ccc(N(CCCl)CCCl)cc1 (stereo unspecified)
Result: inactive

Request: Test call for this compound, please: N=C(N)N1CCNc2ccccc2C1
Result: inactive

###

# growth inhibition values compiled below
test: NCI Yeast Anticancer Drug Screen. Data for the bub3 strain (AID 167); conditions: S. cerevisiae bub3 mutant strain, at 50.0 µM (retest, dose inferred, filed as 5.0), stronger effect = higher value
Compounds without any hit were thinned out: in the full panel of roughly 79,000, 15% have a hit.
Express the result in % but write the number alone.

The compound N#CC(Cl)(Cl)CCl showed growth inhibition equal to 99

The compound CC12OOC(c3ccccc31)c1c2ccc2ccccc12 (stereo unspecified) showed growth inhibition equal to 97

The compound Nc1nc2ncnc(N)c2nc1-c1ccc(N(CCCl)CCCl)cc1 showed growth inhibition equal to 40

The compound COc1c(Br)cc(/C=C/[N+](=O)[O-])cc1Br showed growth inhibition equal to 97

The compound O=[N+]([O-])c1c[c]([Hg][Cl])c(O)[c]([Hg][Cl])c1 showed growth inhibition equal to 91

The compound c1ccc([As+](c2ccccc2)(c2ccccc2)c2cccc3ccccc23)cc1 showed growth inhibition equal to 99

The compound CC(=O)[O-].CC(=O)[O-].O=C(N/N=C/c1cc(Cl)cc(Cl)c1[OH2+])c1ccncc1.[Co+2] showed growth inhibition equal to 9

The compound CN1CCN(c2ccc3nc(-c4ccc5nc(CCCc6ccc(N(CCCl)CCCl)cc6)[nH]c5c4)[nH]c3c2)CC1 showed growth inhibition equal to 99

The compound CC1CCN(C(CC(=O)c2ccccc2)C(=O)c2ccccc2)CC1 (stereo unspecified) showed growth inhibition equal to 100

The compound O=[n+]1c2ccccc2n([O-])c2ccccc21.[Cl][Cu][Cl] showed growth inhibition equal to 98

The compound CCOC(=O)[C]1([Pb]([CH3])([CH3])[CH3])N=NC(C(=O)OC)=C1C(=O)OC (stereo unspecified) showed growth inhibition equal to 32

The compound O=C(O)c1ccccc1.[Zn+2] showed growth inhibition equal to -1

The compound COC1CCC(OC2CC(C3(C)CCC4(CC(O)C(C)C(C(C)/C=C(\C)C(=O)C(C)CC(C)C(=O)O)O4)O3)OC3(OC(C4OC(O)(CO)C(C)CC4C)CC3C)C2C)OC1C (stereo unspecified) showed growth inhibition equal to 59

The compound CCOc1c(Br)cc(N=Cc2ccc(N(CCCl)CCCl)c(OC)c2)cc1Br showed growth inhibition equal to -16

The compound Cc1cc(N(CCCl)CCCl)ccc1C1N(Cc2ccc(Cl)cc2Cl)CCCN1Cc1ccc(Cl)cc1Cl showed growth inhibition equal to 92

The compound CC12CCC(=O)C=C1CCC1C2CCC2(C)C(O[Si](C)(C)OC3CCC4C5CCC6=CC(=O)CCC6(C)C5CCC34C)CCC12 (stereo unspecified) showed growth inhibition equal to 0

###

assay: NCI Yeast Anticancer Drug Screen. Data for the mlh1 rad18 strain (AID 175); details: S. cerevisiae mlh1 rad18 strain growth inhibition; at 50.0 µM (retest, dose inferred, filed as 5.0); stronger effect = higher value
This is part of a sample that, as a whole, favours compounds with a hit. Of some 79,000 tested, about 15% had one in any assay.
EXPERIMENTAL READOUT: growth inhibition (%)
Express the result in % but write the number alone.

C[C](=O)[Hg][O]c1ccc(N=Cc2ccccc2O)cc1	99

The molecule O=C(CBr)OC1CCCCC1 showed growth inhibition equal to 98

The molecule Cc1cc[n+](C2=C(Nc3c(C)cccc3C)C(=O)c3ccccc3C2=O)cc1 showed growth inhibition equal to 51

The molecule Cc1ccc(OP(=O)(Oc2ccc(C)cc2)Oc2ccc(C)cc2)cc1.Cc1ccc(OP(=O)(Oc2ccc(C)cc2)Oc2ccc(C)cc2)cc1.Cc1ccc(OP(=O)(Oc2ccc(C)cc2)Oc2ccc(C)cc2)cc1.Cc1ccc(OP(=O)(Oc2ccc(C)cc2)Oc2cccc(C)c2)cc1.[Cd+2].[O-][Cl+3]([O-])([O-])O showed growth inhibition equal to 36

The molecule CC12C(=O)C=CCC1=CCC1C2CCC2(O)C(=O)OC3(C)C4CC5(C)C(COC16OC23C5C6=O)C(=O)O4 (stereo not drawn) showed growth inhibition equal to 64

The molecule CN1CCOC12CCC1(C)C(CCC3C4CCC(O)C4(C)CCC31)C2 (stereo not drawn) showed growth inhibition equal to -12

The molecule CCOC(=O)[C]1([Pb]([CH3])([CH3])[CH3])N=NC(C(=O)OC)=C1C(=O)OC (stereo not drawn) showed growth inhibition equal to -2

The molecule NC(=S)C1=C(N)Oc2c(c(=O)oc3ccccc23)C1c1ccc(Br)cc1 (stereo not drawn) showed growth inhibition equal to 91
